B1: library; numbered along this chain (parent)
chain: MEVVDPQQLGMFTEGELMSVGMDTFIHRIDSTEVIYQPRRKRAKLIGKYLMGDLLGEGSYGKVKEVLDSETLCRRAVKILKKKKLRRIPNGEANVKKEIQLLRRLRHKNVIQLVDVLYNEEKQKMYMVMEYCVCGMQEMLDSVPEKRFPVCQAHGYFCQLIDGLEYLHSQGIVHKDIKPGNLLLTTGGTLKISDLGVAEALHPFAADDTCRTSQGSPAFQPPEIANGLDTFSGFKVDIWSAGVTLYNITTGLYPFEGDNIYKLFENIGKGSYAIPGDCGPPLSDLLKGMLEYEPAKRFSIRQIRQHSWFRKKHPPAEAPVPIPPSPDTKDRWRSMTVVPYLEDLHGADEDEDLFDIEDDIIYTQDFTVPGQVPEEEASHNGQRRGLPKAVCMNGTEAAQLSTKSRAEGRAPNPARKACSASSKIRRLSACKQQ

# Variants of: B1
# procedure.text: STK11 functional score (HeLa growth suppression), rescaled enrichment; synonymous median = 1, nonsense median = 0 (normalised score)
# condition.context: with HeLa; variant type: missense
Below, each entry is listed with its recorded STK11 functional score.
property.name: STK11 functional score

>>> reported_result("L17V")
1.35
>>> reported_result("Y246T")
0.982
>>> reported_result("P275D")
1.63
>>> reported_result("I79L")
0.451
>>> reported_result("R331G")
1.41
>>> reported_result("L341E")
1.55
>>> reported_result("G394E")
1.26
>>> reported_result("K431Y")
1.48
>>> reported_result("S421C")
0.549
>>> reported_result("L341H")
0.315
>>> reported_result("L67A")
0.924
>>> reported_result("S19R")
0.749
>>> reported_result("L85P")
1.41
>>> reported_result("A377M")
1.51
>>> reported_result("T367K")
0.53
>>> reported_result("S59E")
1.42
>>> reported_result("G276D")
1.33
>>> reported_result("S334P")
1.43
>>> reported_result("L184H")
0.93
>>> reported_result("K175Q")
1.19
>>> reported_result("K83T")
0.156
>>> reported_result("A241P")
0.702
>>> reported_result("K124Y")
1.25
>>> reported_result("A205S")
1.18
>>> reported_result("V320L")
0.723
>>> reported_result("T367G")
1.6
>>> reported_result("D229P")
1.68
>>> reported_result("P319Y")
1.46
>>> reported_result("I274M")
0.974
>>> reported_result("P221R")
0.116
>>> reported_result("D141F")
1.52
>>> reported_result("L17D")
1.7
>>> reported_result("N109A")
0.625
>>> reported_result("P323Q")
0.422
>>> reported_result("P254S")
0.653
>>> reported_result("S419L")
1.17
>>> reported_result("R310H")
1.5
>>> reported_result("M22F")
1
>>> reported_result("L341P")
1.54
>>> reported_result("N181D")
-0.134
>>> reported_result("G257V")
1.23
>>> reported_result("K262M")
1.17
>>> reported_result("K329L")
1.42
>>> reported_result("V337K")
1.53
>>> reported_result("A205G")
0.712
>>> reported_result("L344W")
1.54
>>> reported_result("L182F")
1.03
>>> reported_result("H168L")
0.263
>>> reported_result("I267A")
1
>>> reported_result("V110W")
0.328
>>> reported_result("V390S")
1.5
>>> reported_result("D208G")
1.37
>>> reported_result("D350N")
1.07
>>> reported_result("A318S")
1.33
>>> reported_result("E70L")
1.03
>>> reported_result("A406R")
1.59
>>> reported_result("Y118R")
1.04
>>> reported_result("E145H")
1.31
>>> reported_result("K122S")
1.65
>>> reported_result("P323D")
1.33
>>> reported_result("Y156W")
0.28
>>> reported_result("S232H")
1.3
>>> reported_result("S283M")
1.28
>>> reported_result("G215H")
0.951
>>> reported_result("P254L")
0.528
>>> reported_result("P369T")
1.53
>>> reported_result("R409E")
1.57
>>> reported_result("Y60L")
0.748
>>> reported_result("E256L")
1.52
>>> reported_result("T230R")
1.39
>>> reported_result("S142R")
0.875
>>> reported_result("D330R")
1.47
>>> reported_result("R415T")
0.914
>>> reported_result("A397S")
1.26
>>> reported_result("L45N")
0.985
>>> reported_result("A206D")
1.07
>>> reported_result("H306A")
1.38
>>> reported_result("L101S")
1.43
>>> reported_result("S240L")
0.708
>>> reported_result("F231V")
0.867
>>> reported_result("D358S")
1.47
>>> reported_result("H154W")
0.87
>>> reported_result("S213L")
1.17
>>> reported_result("D277F")
1.35
>>> reported_result("L182E")
-0.122
>>> reported_result("D327R")
1.61
